inhibition at 0.1 µg/mL values, listed per item
- experimental.system: HBV polymerase (Hepatitis B virus genotype A2 subtype adw2, UniProt P03159)
- Construct: made in house; host or cells: E. coli
- Sequence (P03159 whole entry): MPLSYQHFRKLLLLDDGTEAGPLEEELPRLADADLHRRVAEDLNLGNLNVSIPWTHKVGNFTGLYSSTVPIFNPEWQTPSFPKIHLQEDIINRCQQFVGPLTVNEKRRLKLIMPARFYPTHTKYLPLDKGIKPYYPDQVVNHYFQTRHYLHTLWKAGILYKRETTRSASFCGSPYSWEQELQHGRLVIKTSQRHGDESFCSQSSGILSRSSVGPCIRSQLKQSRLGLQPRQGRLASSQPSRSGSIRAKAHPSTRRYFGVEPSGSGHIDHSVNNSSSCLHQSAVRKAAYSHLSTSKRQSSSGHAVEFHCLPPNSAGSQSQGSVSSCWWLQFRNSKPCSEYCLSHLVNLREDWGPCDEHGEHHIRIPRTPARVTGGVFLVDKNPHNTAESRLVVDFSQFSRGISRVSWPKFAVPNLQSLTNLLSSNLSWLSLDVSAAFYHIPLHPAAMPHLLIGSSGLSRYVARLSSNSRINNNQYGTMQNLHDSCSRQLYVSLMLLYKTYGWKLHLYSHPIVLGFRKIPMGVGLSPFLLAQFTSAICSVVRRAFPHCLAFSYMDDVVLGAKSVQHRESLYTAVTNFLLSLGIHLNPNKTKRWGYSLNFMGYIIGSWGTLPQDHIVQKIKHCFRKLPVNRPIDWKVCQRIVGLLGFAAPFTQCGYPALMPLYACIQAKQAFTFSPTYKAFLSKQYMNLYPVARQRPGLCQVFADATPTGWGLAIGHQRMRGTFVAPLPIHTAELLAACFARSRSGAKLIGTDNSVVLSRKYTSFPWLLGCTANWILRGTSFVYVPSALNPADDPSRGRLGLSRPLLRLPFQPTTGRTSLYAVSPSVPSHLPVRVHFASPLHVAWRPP
- assay: In vitro reverse transcription activity of HBV polymerase (ELISA-type, DIG/biotin nucleotides)
- Format: biochemical
- particulars: 0.1 μg/ml test compound; read-out: Inhibition activity on HBV-RT (%)

{"columns": ["given.smiles", "inhibition at 0.1 µg/mL / %"],
 "data": [
  ["COC(=O)[C@@H](NC(=O)c1cnc(SC)nc1Nc1ccc2[nH]ncc2c1)[C@@H](C)O", 40],
  ["CSc1ncc(C(=O)N(C)C)c(Nc2ccc3[nH]ncc3c2)n1", 61],
  ["CSc1ncc(C(=O)NCCCn2ccnc2)c(Nc2ccc3[nH]ncc3c2)n1", 56],
  ["COCCNC(=O)c1cnc(SC)nc1Nc1ccc2cn[nH]c2c1", 42],
  ["CSc1ncc(C(=O)N2CCN(C)CC2)c(Nc2ccc3[nH]ncc3c2)n1", 58],
  ["CSc1ncc(C(=O)N2CCN(CCO)CC2)c(Nc2ccc3[nH]ncc3c2)n1", 32],
  ["CSc1ncc(C(=O)NC2CC2)c(Nc2ccc3cn[nH]c3c2)n1", 43],
  ["CSc1ncc(C(=O)N(C)CCO)c(Nc2ccc3cn[nH]c3c2)n1", 48],
  ["CSc1ncc(C(=O)N2CCN(C)CC2)c(Nc2ccc3cn[nH]c3c2)n1", 40],
  ["COCCNC(=O)c1cnc(SC)nc1Nc1ccc2[nH]ncc2c1", 40],
  ["CSc1ncc(C(=O)NCCO)c(Nc2ccc3cn[nH]c3c2)n1", 68],
  ["CNC(=O)c1cnc(SC)nc1Nc1ccc2cn[nH]c2c1", 77],
  ["CSc1ncc(C(=O)NN2CCN(C)CC2)c(Nc2ccc3[nH]ncc3c2)n1", 54]
]}

====

- experimental.system: HIV reverse transcriptase (Human immunodeficiency virus type 1 group M subtype B, UniProt P04585)
- Construct: activities of HIV reverse transcriptase; purchased Boehringer Mannheim
- assay: In vitro HIV reverse transcriptase activity (non-radioactive reverse transcriptase assay kit)
- Format: biochemical
- particulars: 1 μg/ml test compound
Could you please mark y for values of Inhibition of HIV reverse transcriptase activity below 80% and n for values at or above it?

{"columns": ["molecule", "class.label"],
 "data": [
  ["CNC(=O)c1cnc(SC)nc1Nc1ccc2cn[nH]c2c1 [Example 4]", "y"],
  ["CNC(=O)c1cnc(SC)nc1Nc1ccc2[nH]ncc2c1 [Example 3]", "y"],
  ["CSc1ncc(C(=O)NCCN(C)C)c(Nc2ccc3cn[nH]c3c2)n1 [Example 18]", "y"],
  ["CSc1ncc(C(=O)NCCN2CCOCC2)c(Nc2ccc3[nH]ncc3c2)n1 [Example 19]", "y"],
  ["CSc1ncc(C(=O)N(C)CCO)c(Nc2ccc3[nH]ncc3c2)n1 [Example 9]", "n"],
  ["CSc1ncc(C(=O)NCCCn2ccnc2)c(Nc2ccc3[nH]ncc3c2)n1 [Example 29]", "y"]
]}

====

- Test system: HBV
- assay: Inhibition of HBV proliferation in HBV producing cell line HepG 2.2.15 (competitive PCR of culture supernatant)
- Format: cell-based, Hepatitis B virus
- particulars: Hepatitis B virus, HepG2.2.15, 168 h; 1 μg/ml, HepG 2.2.15, one week; read-out: Inhibitory effect on the HBV proliferation, Inhibition activity on HBV-RT (%)
- Experimental: The following experiment was performed to determine inhibitory effects of compounds of formula on the proliferation of HBV producing cell line. To test for antiviral effect, replication and proliferation of HBV were measured in HepG 2.2.15, a human liver cancer cell line. […]
Reported values of inhibition at 1 µg/mL for individual entries

{"columns": ["molecule", "units", "inhibition at 1 µg/mL"],
 "data": [
  ["CNC(=O)c1cnc(SC)nc1Nc1ccc2cn[nH]c2c1 [Example 4]", "%", 94],
  ["CSc1ncc(C(=O)NCCc2ccccn2)c(Nc2ccc3[nH]ncc3c2)n1 [Example 27]", "%", 84],
  ["CSc1ncc(C(=O)N(C)C)c(Nc2ccc3[nH]ncc3c2)n1 [Example 15]", "%", 70],
  ["CSc1ncc(C(=O)NCCN(C)C)c(Nc2ccc3cn[nH]c3c2)n1 [Example 18]", "%", 88],
  ["CSc1ncc(C(N)=O)c(Nc2ccc3cn[nH]c3c2)n1 [Example 2]", "%", 70],
  ["CSc1ncc(C(=O)N(C)CCO)c(Nc2ccc3[nH]ncc3c2)n1 [Example 9]", "%", 65],
  ["CSc1ncc(C(=O)NCCO)c(Nc2ccc3cn[nH]c3c2)n1 [Example 8]", "%", 88],
  ["CSc1ncc(C(=O)NCc2cccnc2)c(Nc2ccc3[nH]ncc3c2)n1 [Example 25]", "%", 92],
  ["CNC(=O)c1cnc(SC)nc1Nc1ccc2[nH]ncc2c1 [Example 3]", "%", 75]
]}
